# experimental_target: Replicative DNA helicase DnaB (Mycobacterium tuberculosis, UniProt P9WMR3)
# Sequence (P9WMR3 whole entry): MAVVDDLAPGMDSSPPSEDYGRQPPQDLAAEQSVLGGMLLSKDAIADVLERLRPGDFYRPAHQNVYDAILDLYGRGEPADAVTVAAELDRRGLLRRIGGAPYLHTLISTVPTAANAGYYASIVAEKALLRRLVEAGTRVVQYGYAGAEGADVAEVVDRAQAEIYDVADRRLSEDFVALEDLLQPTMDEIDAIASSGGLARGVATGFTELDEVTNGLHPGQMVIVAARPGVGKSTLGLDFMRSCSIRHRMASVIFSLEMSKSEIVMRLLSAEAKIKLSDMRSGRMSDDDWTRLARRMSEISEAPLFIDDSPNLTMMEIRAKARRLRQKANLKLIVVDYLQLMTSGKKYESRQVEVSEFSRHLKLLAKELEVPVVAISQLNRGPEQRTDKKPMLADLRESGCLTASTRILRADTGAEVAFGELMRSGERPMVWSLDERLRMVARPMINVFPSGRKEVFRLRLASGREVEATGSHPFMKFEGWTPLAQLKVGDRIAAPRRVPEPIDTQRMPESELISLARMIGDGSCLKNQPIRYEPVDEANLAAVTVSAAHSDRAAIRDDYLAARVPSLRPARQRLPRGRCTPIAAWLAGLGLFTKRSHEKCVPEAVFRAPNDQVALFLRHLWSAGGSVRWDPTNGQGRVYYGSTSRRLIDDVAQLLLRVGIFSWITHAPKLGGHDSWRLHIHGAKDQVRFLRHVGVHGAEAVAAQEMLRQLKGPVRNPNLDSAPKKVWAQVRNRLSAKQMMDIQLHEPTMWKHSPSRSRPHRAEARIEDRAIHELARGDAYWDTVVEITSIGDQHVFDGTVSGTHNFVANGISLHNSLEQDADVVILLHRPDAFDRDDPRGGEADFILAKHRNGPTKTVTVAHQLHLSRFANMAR
# measurement_description: DnaB intein splicing inhibitors, dose response, biochemical, cell-free fluorescence (AID 449749)
# Format: functional
Activity calls are given as the source filed them.
result_type: AC50

Ask: Reported AC50, compound `O=[N+]([O-])/C(C(Cl)=C(Cl)Cl)=C(/Sc1ccccc1)N1CCCCC1` : ____
Reply: 3.88 µM (active)

Ask: Reported AC50, compound `Cc1ccc(N2C(=O)C(Cl)=C(NCCO)C2=O)c(C)c1` : ____
Reply: 155 µM (active)

Ask: Reported AC50, compound CCCc1n[nH]c2c1C(c1ccc(O)c(OC)c1)C(C#N)=C(N)O2 (configuration not stated) : ____
Reply: 57.1 µM (active)

Ask: Reported AC50, compound `c1ccc2nc3cc4[nH]cnc4cc3nc2c1` : ____
Reply: 19.5 µM (active)

Ask: Reported AC50, compound C/C(=C/CCC(C)[C@H]1CC[C@@]2(C)C3=C(CC[C@]12C)[C@@]1(C)CCC(=O)C(C)(C)[C@@H]1CC3)C(=O)O (some centres not stated) : ____
Reply: 2.12 µM (active)

Ask: Reported AC50, compound `O=C(Nc1cccc(OC(=O)c2ccc(Br)o2)c1)c1ccccc1` : ____
Reply: 0.0485 µM (inconclusive)

Ask: Reported AC50, compound `C/C(=N\NC(=O)c1ccncc1)c1cc2ccccc2oc1=O` : ____
Reply: 2.77 µM (active)

###

# experimental_target: Endoribonuclease toxin MazF (Escherichia coli K-12)
# Sequence (P0AE70 whole entry): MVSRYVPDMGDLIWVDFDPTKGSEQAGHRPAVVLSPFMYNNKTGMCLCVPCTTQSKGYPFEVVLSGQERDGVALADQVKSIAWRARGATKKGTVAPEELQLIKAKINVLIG
# measurement_description: activation of MazEF endoribonuclease cleavage – biochemical, fluorescence, single-stranded RNA substrate, uHTS hits, dose response (AID 588481)
# Type: functional
Activity calls are given as the source filed them.
For each record, write down the corresponding EC50.

Ask: Reported EC50, molecule `O=C(OCCNc1ccc(C(F)(F)F)cc1[N+](=O)[O-])c1cc2ccccc2oc1=O` : ____
Reply: 27.7 µM (inactive)

Ask: Reported EC50, molecule `O=C(Nc1cc[n+](-c2nc3ccccc3nc2[N-]S(=O)(=O)c2ccc(Cl)cc2)cc1)c1cccs1` : ____
Reply: > 99 µM (inactive)

Ask: Reported EC50, molecule O=C(Nc1ccc(Cl)c(C(F)(F)F)c1)NC1CC2CCCC(C1)N2Cc1ccccc1 (stereo unspecified) : ____
Reply: > 99 µM (inactive)

Ask: Reported EC50, molecule `NC(=O)CSc1nnc(-c2cc(-c3cccs3)nc3ccccc23)o1` : ____
Reply: > 99 µM (inactive)

Ask: Reported EC50, molecule `COc1ccc(OCCNc2cc(Cl)ccc2[N+](=O)[O-])cc1` : ____
Reply: > 99 µM (inactive)

Ask: Reported EC50, molecule `CC(=O)C1=C(c2cccc([N+](=O)[O-])c2)N(C(C)=O)n2c(C)nnc2S1` : ____
Reply: 20.5 µM (inactive)

###

For each record, write down the corresponding Ki.
# experimental_target: Serine/threonine-protein kinase pim-1 (Homo sapiens)
# Sequence (P11309 whole entry): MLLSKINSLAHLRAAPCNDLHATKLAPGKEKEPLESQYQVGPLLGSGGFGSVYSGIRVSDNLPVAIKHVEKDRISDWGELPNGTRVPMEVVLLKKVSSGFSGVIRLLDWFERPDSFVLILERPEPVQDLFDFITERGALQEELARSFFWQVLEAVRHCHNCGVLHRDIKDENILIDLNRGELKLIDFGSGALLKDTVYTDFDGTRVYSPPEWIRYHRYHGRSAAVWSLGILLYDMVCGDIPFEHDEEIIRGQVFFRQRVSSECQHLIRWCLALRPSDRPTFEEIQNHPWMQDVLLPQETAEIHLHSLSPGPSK
# Assay type: functional
Calls of active or inactive are those of the source.

Ask: Reported Ki, compound `O=C(Nc1ccc(CO)cc1)c1cnn2c(-c3ccccc3)ccnc12` : ____
Reply: > 10 µM (inactive)

Ask: Reported Ki, compound `Oc1ccc(-c2nc(-c3ccncc3)c(-c3ccc(F)cc3)[nH]2)cc1` : ____
Reply: > 6.31 µM (inactive)

Ask: Reported Ki, compound COc1cccc(C(C)NC(=O)c2sc(-c3ccncc3)nc2C)c1 (stereo not given) : ____
Reply: > 6.31 µM (inactive)

Ask: Reported Ki, compound CCC1C(=O)N(C)c2cnc(Nc3ccc(C(=O)NC4CCN(C)CC4)cc3OC)nc2N1C1CCCC1 (stereo not given) : ____
Reply: > 10 µM (inactive)

Ask: Reported Ki, compound `CCCCC(=O)Nc1cc(-c2c[nH]c3ncccc23)cc(Cl)n1` : ____
Reply: > 6.31 µM (inactive)

###

For each record, write down the corresponding EC50.
# experimental_target: Peroxisome proliferator-activated receptor gamma/Nuclear receptor coactivator 3 (Homo sapiens, UniProt P37231);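 note: agonist potency for raising coactivator recruitment to the receptor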
# Sequence (P37231 whole entry): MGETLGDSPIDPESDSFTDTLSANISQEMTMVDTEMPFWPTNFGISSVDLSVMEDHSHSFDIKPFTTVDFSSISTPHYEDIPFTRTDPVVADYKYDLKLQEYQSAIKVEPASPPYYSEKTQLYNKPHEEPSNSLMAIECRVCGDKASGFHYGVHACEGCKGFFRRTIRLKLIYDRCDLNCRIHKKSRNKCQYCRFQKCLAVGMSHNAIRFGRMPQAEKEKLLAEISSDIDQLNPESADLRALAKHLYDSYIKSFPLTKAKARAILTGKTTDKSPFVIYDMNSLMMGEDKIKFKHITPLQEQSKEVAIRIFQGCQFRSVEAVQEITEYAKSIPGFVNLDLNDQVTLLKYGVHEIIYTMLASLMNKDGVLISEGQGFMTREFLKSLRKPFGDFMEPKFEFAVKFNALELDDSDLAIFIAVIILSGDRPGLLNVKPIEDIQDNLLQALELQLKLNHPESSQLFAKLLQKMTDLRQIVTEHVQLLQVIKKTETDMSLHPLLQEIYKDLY
# Sequence (Q9Y6Q9 whole entry, further chain): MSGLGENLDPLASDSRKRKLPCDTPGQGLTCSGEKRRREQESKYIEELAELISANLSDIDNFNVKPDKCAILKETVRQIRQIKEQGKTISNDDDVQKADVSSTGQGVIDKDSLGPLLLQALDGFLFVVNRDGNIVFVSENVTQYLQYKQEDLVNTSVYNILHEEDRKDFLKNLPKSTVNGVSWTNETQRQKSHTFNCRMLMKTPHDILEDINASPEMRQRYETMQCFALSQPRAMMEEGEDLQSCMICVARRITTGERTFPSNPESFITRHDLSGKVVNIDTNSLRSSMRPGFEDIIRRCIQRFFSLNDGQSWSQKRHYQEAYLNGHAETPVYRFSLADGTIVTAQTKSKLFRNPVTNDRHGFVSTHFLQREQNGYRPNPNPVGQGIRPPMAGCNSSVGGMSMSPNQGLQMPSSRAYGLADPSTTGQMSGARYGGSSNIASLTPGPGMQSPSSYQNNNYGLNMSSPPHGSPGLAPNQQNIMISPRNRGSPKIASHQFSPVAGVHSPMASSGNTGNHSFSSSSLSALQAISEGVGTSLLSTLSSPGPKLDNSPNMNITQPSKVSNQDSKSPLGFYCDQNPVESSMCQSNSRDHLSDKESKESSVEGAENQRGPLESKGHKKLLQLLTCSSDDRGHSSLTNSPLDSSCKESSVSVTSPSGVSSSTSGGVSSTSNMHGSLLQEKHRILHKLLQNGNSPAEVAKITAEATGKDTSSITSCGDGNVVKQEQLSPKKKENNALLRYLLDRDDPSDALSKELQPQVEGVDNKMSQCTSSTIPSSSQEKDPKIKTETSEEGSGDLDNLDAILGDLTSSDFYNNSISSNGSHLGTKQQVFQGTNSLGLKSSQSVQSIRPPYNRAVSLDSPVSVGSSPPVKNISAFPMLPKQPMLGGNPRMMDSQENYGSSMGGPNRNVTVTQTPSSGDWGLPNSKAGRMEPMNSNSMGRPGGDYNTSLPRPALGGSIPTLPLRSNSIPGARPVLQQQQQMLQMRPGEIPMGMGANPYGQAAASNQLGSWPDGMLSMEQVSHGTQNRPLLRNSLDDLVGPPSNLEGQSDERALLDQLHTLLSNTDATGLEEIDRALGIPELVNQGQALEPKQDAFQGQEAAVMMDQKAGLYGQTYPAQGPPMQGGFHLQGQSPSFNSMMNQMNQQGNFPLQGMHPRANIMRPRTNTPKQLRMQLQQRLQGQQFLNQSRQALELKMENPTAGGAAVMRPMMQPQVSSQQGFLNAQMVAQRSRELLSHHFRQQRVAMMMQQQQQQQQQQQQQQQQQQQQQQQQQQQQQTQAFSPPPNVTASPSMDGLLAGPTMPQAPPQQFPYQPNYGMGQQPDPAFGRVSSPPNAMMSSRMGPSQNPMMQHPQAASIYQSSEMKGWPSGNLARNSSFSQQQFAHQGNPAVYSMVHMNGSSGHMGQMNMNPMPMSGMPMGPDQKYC
# Assay type: functional

Ask: Reported EC50, compound `COc1ccc(-c2[nH]c3ccccc3c2SCCNC(=O)c2ccccc2)cc1` : ____
Reply: < 79.4 µM (not active)

Ask: Reported EC50, compound `CCn1cc(/C=C/C(=O)Nc2ccn(Cc3c(F)c(F)c(F)c(F)c3F)n2)cn1` : ____
Reply: > 79.4 µM (not active)

Ask: Reported EC50, compound `COc1ccc(OC)c(NC(=O)CSc2nnc(N)s2)c1` : ____
Reply: > 79.4 µM (not active)

Ask: Reported EC50, compound `CCc1ccc2c(c1)cc(CN(C(=S)Nc1ccc(Cl)cc1)C1CC1)c1nnnn12` : ____
Reply: 11.6 µM (not active)

###

# experimental_target: Sentrin-specific protease 6 (Homo sapiens);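 note: Luminescence-based dose-response confirmatory assay of SENP6 inhibition, following up an ultra-high-throughput screen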
# Sequence (Q9GZR1 whole entry): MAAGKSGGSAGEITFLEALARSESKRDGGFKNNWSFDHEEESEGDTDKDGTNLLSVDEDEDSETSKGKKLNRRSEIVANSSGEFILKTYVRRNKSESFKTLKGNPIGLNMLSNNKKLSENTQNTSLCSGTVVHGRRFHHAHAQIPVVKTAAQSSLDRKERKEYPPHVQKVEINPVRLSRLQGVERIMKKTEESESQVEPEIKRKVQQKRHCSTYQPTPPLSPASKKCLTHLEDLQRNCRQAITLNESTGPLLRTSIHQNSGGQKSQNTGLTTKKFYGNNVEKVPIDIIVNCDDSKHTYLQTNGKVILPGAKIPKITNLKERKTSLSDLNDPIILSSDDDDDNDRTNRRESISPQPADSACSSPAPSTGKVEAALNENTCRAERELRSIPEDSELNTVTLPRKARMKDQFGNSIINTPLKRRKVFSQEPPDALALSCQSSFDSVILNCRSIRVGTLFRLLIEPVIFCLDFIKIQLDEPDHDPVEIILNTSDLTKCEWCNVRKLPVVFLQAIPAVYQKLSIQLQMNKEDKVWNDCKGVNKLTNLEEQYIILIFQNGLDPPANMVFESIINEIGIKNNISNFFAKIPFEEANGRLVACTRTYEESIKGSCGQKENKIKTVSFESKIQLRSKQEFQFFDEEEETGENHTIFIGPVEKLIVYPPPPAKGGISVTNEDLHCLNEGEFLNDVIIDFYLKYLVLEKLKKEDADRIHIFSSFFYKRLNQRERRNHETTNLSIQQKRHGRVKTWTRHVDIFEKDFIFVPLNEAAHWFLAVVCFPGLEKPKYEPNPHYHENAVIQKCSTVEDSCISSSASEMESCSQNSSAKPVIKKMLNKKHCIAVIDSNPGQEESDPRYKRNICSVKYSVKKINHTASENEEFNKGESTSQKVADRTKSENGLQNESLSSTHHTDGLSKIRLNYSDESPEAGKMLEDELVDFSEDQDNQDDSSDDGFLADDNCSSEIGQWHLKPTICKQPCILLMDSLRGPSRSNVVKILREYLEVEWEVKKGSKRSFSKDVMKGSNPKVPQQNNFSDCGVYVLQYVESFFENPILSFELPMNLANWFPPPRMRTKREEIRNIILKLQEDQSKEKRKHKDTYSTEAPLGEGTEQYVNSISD
# Format: functional
The source made the active and inactive calls.
For each record, write down the corresponding IC50.

Ask: Reported IC50, compound `CCCc1ccc(OC(=O)c2ccc(O)cc2Cl)cc1` : ____
Reply: 8.84 µM (active)

Ask: Reported IC50, compound `Cc1ccc2c(c1N)C(=O)c1ccccc1C2=O` : ____
Reply: 42.3 µM (active)

Ask: Reported IC50, compound `CCOC(=O)c1c(C)[nH]c(N=Nc2cccc(C)c2)c1C` : ____
Reply: 18 µM (active)

Ask: Reported IC50, compound `Nc1ccccc1C#Cc1ccc([N+](=O)[O-])cc1` : ____
Reply: 31 µM (active)

Ask: Reported IC50, compound `Cc1ccc(-n2nnc(-c3cccnc3Cl)n2)cc1` : ____
Reply: 4.03 µM (active)
